# Lookup of reported self-cleavage keyed by entry
B1: CPEB3 Ribozyme (parent)
chain: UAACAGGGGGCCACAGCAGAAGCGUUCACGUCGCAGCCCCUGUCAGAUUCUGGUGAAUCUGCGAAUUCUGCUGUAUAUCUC

- Variants of: B1
- PROTOCOL DETAILS: self-cleavage, relative activity (ratio to wild type); higher = more cleavage; in vitro, sequencing
MEASURED PROPERTY: self-cleavage

>  <VARIANT KEY>
C27U A45C

>  <MEASURED PROPERTY>
self-cleavage

>  <RECORDED RESULT>
0.19

$$$$
>  <VARIANT KEY>
U25A A77U

>  <MEASURED PROPERTY>
self-cleavage

>  <RECORDED RESULT>
0.23

$$$$
>  <VARIANT KEY>
U25A C32U

>  <MEASURED PROPERTY>
self-cleavage

>  <RECORDED RESULT>
0.38

$$$$
>  <VARIANT KEY>
A5U C81G

>  <MEASURED PROPERTY>
self-cleavage

>  <RECORDED RESULT>
1.29

$$$$
>  <VARIANT KEY>
U1C C79A

>  <MEASURED PROPERTY>
self-cleavage

>  <RECORDED RESULT>
1.03

$$$$
>  <VARIANT KEY>
G46A A47C

>  <MEASURED PROPERTY>
self-cleavage

>  <RECORDED RESULT>
0.17

$$$$
>  <VARIANT KEY>
C12U A64U

>  <MEASURED PROPERTY>
self-cleavage

>  <RECORDED RESULT>
0.83

$$$$
>  <VARIANT KEY>
U43C C59A

>  <MEASURED PROPERTY>
self-cleavage

>  <RECORDED RESULT>
0.12

$$$$
>  <VARIANT KEY>
A15U G63U

>  <MEASURED PROPERTY>
self-cleavage

>  <RECORDED RESULT>
0.93

$$$$
>  <VARIANT KEY>
U26C U80G

>  <MEASURED PROPERTY>
self-cleavage

>  <RECORDED RESULT>
0.54

$$$$
>  <VARIANT KEY>
G42U A64U

>  <MEASURED PROPERTY>
self-cleavage

>  <RECORDED RESULT>
0.13

$$$$
>  <VARIANT KEY>
G36A A47G

>  <MEASURED PROPERTY>
self-cleavage

>  <RECORDED RESULT>
0.34

$$$$
>  <VARIANT KEY>
U31C U41A

>  <MEASURED PROPERTY>
self-cleavage

>  <RECORDED RESULT>
0.29

$$$$
>  <VARIANT KEY>
A35U A57U

>  <MEASURED PROPERTY>
self-cleavage

>  <RECORDED RESULT>
0.2

$$$$
>  <VARIANT KEY>
G55C A77G

>  <MEASURED PROPERTY>
self-cleavage

>  <RECORDED RESULT>
1.04

$$$$
>  <VARIANT KEY>
C39A A64U

>  <MEASURED PROPERTY>
self-cleavage

>  <RECORDED RESULT>
0.22

$$$$
>  <VARIANT KEY>
U66C A77U

>  <MEASURED PROPERTY>
self-cleavage

>  <RECORDED RESULT>
0.34

$$$$
>  <VARIANT KEY>
G19C U26C

>  <MEASURED PROPERTY>
self-cleavage

>  <RECORDED RESULT>
0.27

$$$$
>  <VARIANT KEY>
A45G C59U

>  <MEASURED PROPERTY>
self-cleavage

>  <RECORDED RESULT>
0.62

$$$$
>  <VARIANT KEY>
C17U A21G

>  <MEASURED PROPERTY>
self-cleavage

>  <RECORDED RESULT>
0.32

$$$$
>  <VARIANT KEY>
A21U C29U

>  <MEASURED PROPERTY>
self-cleavage

>  <RECORDED RESULT>
0.3

$$$$
>  <VARIANT KEY>
G24A U67A

>  <MEASURED PROPERTY>
self-cleavage

>  <RECORDED RESULT>
0.18

$$$$
